test-target: T1, human CD3 on CD3+ Jurkat cells (human, UniProt P07766 23-207)
T1 construct: whole, on cells; Native CD3 complex on cells; the other CD3 chains are not specified for this assay; also called Human CD3+ Jurkat
T1 sequence (P07766 23-207): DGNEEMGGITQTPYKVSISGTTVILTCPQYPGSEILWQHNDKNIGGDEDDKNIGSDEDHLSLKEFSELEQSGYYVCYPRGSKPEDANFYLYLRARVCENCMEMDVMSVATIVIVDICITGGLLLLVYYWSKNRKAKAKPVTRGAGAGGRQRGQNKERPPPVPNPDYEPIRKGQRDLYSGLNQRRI
assay-overview: flow cytometry, 100 nM IgG on CD3+ Jurkat cells, pH 6.0
assay-metric: MFI pH 6.0 (MFI)
Use MFI as the unit, but write only the number.

These solved cases illustrate the format of a correct answer.
SAD10318_P02_C04 (ADI-48592) (antibody, V domains shown, IgG; also called Ab125) VH: QVQLVQSGAEVKEPGASVKVSCKASGFNIKDYYMHWVRQAPGQRLEWMGWIDLENANTIYDAKFQGRVTITRDTSASTAYMELSSLRSEDTAVYYCARDAHHRYFYDVWGQGTLVTVSS VL: DIVMTQSPDSLAVSLGERATINCKSSQSLLNAHTGHNYLAWYQQKPGQPPKLLIYWASTRESGVPDRFSGSGSGTDFTLTISSLQAEDVAVYYCKQSYSRRTFGGGTKVEIK: 5810
SAD10319_P01_D01 (ADI-48622) (antibody, V domains shown, IgG; also called Ab231) VH: QVQLVQSGAEVKKPGASVKVSCKASGYTFKSYDMHWVRQAPGQRLEWMGWIDAGTGNTKYSQKFQGRVTITRDTSASTAYMELSSLRSEDTAVYYCARDAYGRYFYDVWGQGTLVTVSS VL: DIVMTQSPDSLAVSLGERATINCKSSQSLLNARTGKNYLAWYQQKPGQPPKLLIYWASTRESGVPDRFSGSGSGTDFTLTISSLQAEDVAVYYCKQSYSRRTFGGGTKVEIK: 3060
SAD10318_P04_C11 (ADI-48615) (antibody, V domains shown, IgG; also called Ab218) VH: QVQLVQSGAEVKKPGASVKVSCKASGFNIKDYYMHWVRQAPGQRLEWMGWIDLENANTIYDAKFQGRVTITRDTSASTAYMELSSLRSEDTAVYYCARDHHGRYFYDVWGQGTLVTVSS VL: DIVMTQSPDSLAVSLGERATINCKSSQSLLNARTGHNHLAWYQQKPGQPPKLLIYWASTRESGVPDRFSGSGSGTDFTLTISSLQAEDVAVYYCKQSYSRRTFGGGTKVEIK: 40
SAD10318_P01_A03 (ADI-48587) (antibody, V domains shown, IgG; also called Ab36) VH: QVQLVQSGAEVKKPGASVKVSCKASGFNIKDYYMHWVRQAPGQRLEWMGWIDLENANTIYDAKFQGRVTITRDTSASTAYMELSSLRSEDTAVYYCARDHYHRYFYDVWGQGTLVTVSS VL: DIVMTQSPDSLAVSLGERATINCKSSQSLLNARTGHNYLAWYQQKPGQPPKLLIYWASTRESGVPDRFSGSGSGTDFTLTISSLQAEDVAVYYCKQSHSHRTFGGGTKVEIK: 5120

Alright, here's another binder for you.
-- ask Look up MFI pH 6.0: SAD10318_P01_F03 (ADI-48589) (antibody, V domains shown, IgG; also called Ab80) VH: QVQLVQSGAEVKKPGASVKVSCKASGFNIKDYYMHWVRQAPGQRLEWMGWIDLENANTIYDAKFQGRVTITRDTSASTAYMELSSLRSEDTAVYYCARDAHGRYFYDHWGQGTLVTVSS VL: DIVMTQSPDSLAVSLGERATINCKSSQSLLNAHTGHNYLAWYQQKPGQPPKLLIYWASTRESGVPDRFSGSGSGTDFTLTISSLQAEDVAVYYCKQSYSHRTFGGGTKVEIK
-- reply 5240
